test-description: Inhibition of quorum sensing system in Pseudomonas aeruginosa PAO1-rhlA-gfp assessed as inhibition of rhlA expression at 50 ug/ml incubated for 8 hrs under shaking condition by microplate reader based analysis relative to control
condition-details: dose 50.0 µg/ml
assay-endpoint: inhibition (%)

compound: C=C(C)CNC(=O)/C=C/C
inhibition, %: 80
--
compound: C/C=C/C=C/C(=O)NCC(C)C
inhibition, %: 84.1
--
compound: C=CCSSCC=C [DIALLYLDISULFIDE]
inhibition, %: 38
--
compound: CCCCC(=O)NCC(C)(C)O
inhibition, %: 55.8
--
compound: C=CC(=O)NCC(=C)C
inhibition, %: 63.9
--
compound: CCCCCCC(=O)NCC(C)C
inhibition, %: 8.21
--
compound: C=CC(=O)NCC(C)C
inhibition, %: 68.6
--
compound: CC(=O)NCC(C)C
inhibition, %: 18.9

A = CC/C=C/C(=O)NCC(C)C
B = CCCCCCC(=O)NCC(C)(C)O
C = C/C=C/C(=O)NCC(C)(C)O
D = C=C(C)CNC(C)=O
E = CCC(=O)NCC(C)(C)O
Ask: Put the items in sequence by inhibition, from largest down. Respond with the label ranking, as requested.
Result: A, C, E, B, D

---

test-description: Cytotoxicity against human HepG2 cells assessed as inhibition of cell growth at 10 ug/ml measured after 48 hrs by CCK-8 method relative to control
Type: toxicity, cell-based
condition-details: at 10 µg/mL
inhibition at 48 h, 10 ug/ml: recorded values
Output spec: scalar in %, unitless text.

molecule: C/C=C/C=C/C(=O)NCC(C)C
inhibition at 48 h, 10 ug/ml, %: -2.16

Form field inhibition at 48 h, 10 ug/ml, entry C=C(C)CNC(=O)/C=C/CCC : 9.91

---

test-description: Inhibition of quorum sensing system in Pseudomonas aeruginosa PAO1-pqsA-gfp assessed as inhibition of pqsA expression at 50 ug/ml incubated for 8 hrs under shaking condition by microplate reader based analysis relative to control
condition-details: dose 50.0 µg/ml
assay-endpoint: inhibition (%)

The following molecules have reported results that may help.
molecule: C=CC(=O)NCC(=C)C
assay-endpoint: inhibition
endpoint-unit: %
value-measured: 2.45

molecule: C=CCSSCC=C [DIALLYLDISULFIDE]
assay-endpoint: inhibition
endpoint-unit: %
value-measured: 34.6

molecule: CCC(=O)NCC(C)C
assay-endpoint: inhibition
endpoint-unit: %
value-measured: 27.8

molecule: C=C(C)CNC(C)=O
assay-endpoint: inhibition
endpoint-unit: %
value-measured: 59.1

1 = C/C=C/C(=O)NCC(C)C
2 = CCCC(=O)NCC(C)(C)O
3 = C=C(C)CNC(=O)/C=C/C=C/C
4 = CCCCC(=O)NCC(C)(C)O
5 = C=CC(=O)NCC(C)(C)O
Ask: Task for the reader: rank each entry by its inhibition, from the minimum upward. Write the labels, ordered according to the request.
Result: 2, 5, 4, 3, 1
(2: -6.15%, 5: 0.28%, 4: 1.47%, 3: 11.8%, 1: 27.8%)

A = CCC/C=C/C(=O)NCC(C)C
B = C=CC(=O)NCC(C)C
C = C=C(C)CNC(=O)CCCCCC
Ask: Rank the items in ascending order with respect to inhibition. To answer, arrange all of the labels according to the requested order.
Result: B, A, C

a = CC/C=C/C(=O)NCC(C)C
b = CCCCCC(=O)NCC(C)C
c = C=C(C)CNC(=O)CCC
d = CC/C=C/C(=O)NCC(C)(C)O
e = CCCCCCC(=O)NCC(C)C
Ask: Put the entries in order of inhibition, starting with the largest number. Give the labels in the order specified.
Result: c, a, b, e, d

---

test-description: Inhibition of quorum sensing system in Pseudomonas aeruginosa PAO1-lasB-gfp assessed as inhibition of lasB expression at 50 ug/ml incubated for 8 hrs under shaking condition by microplate reader based analysis relative to control
condition-details: dose 50.0 µg/ml
assay-endpoint: inhibition (%)

Recorded inhibition, per entry:
molecule: CCCCCC(=O)NCC(C)(C)O
assay-endpoint: inhibition
value-measured: 32.4
//
molecule: CCC/C=C/C(=O)NCC(C)(C)O
assay-endpoint: inhibition
value-measured: 34.5

1 = C=C(C)CNC(=O)CCCCCC
2 = CCCC(=O)NCC(C)(C)O
Ask: When 1 and 2 are compared, which has the higher number for inhibition? Write down the label of the entry you select.
Result: 1

---

test-description: Inhibition of quorum sensing system in Pseudomonas aeruginosa PAO1-rhlA-gfp assessed as inhibition of rhlA expression at 50 ug/ml incubated for 8 hrs under shaking condition by microplate reader based analysis relative to control
condition-details: dose 50.0 µg/ml
assay-endpoint: inhibition (%)

molecule: CCCC(=O)NCC(C)C
inhibition / %: 65.4

molecule: CCC(=O)NCC(C)C
inhibition / %: 71

molecule: C=C(C)CNC(=O)/C=C/CCC
inhibition / %: 85

molecule: CC/C=C/C(=O)NCC(C)(C)O
inhibition / %: 58.1

molecule: C=C(C)CNC(=O)CCCCCC
inhibition / %: 68.4

I = C=C(C)CNC(=O)CCCC
II = CC(=O)NCC(C)(C)O
Ask: Identify the item whose inhibition is the smaller number: I or II # answer = label of selected item
Result: II

a = CCCCCC(=O)NCC(C)C
b = C=CC(=O)NCC(C)(C)O
c = CCCC(=O)NCC(C)(C)O
Ask: Please list these in order of increasing inhibition. Thank you! Dear reader, please state the labels in the requested order.
Result: b, c, a

---

test-description: Inhibition of quorum sensing system in Pseudomonas aeruginosa PAO1-pqsA-gfp assessed as inhibition of pqsA expression at 50 ug/ml incubated for 8 hrs under shaking condition by microplate reader based analysis relative to control
condition-details: dose 50.0 µg/ml
assay-endpoint: inhibition (%)

Some solved entries appear below for comparison.
molecule: C=C(C)CNC(=O)/C=C/C
assay-endpoint: inhibition
value-measured: 38
--
molecule: CCCC(=O)NCC(C)C
assay-endpoint: inhibition
value-measured: 29.8
--
molecule: CCCCC(=O)NCC(C)C
assay-endpoint: inhibition
value-measured: 30.2
--
molecule: C=C(C)CNC(=O)CCCC
assay-endpoint: inhibition
value-measured: 26

A = C=C(C)CNC(=O)CCCCC
B = CC(=O)NCC(C)C
Ask: Compare inhibition: is it lower for A or for B ? Let me know the label of the one you choose.
Result: B

---

test-description: Inhibition of quorum sensing system in Pseudomonas aeruginosa PAO1-rhlA-gfp assessed as inhibition of rhlA expression at 50 ug/ml incubated for 8 hrs under shaking condition by microplate reader based analysis relative to control
condition-details: dose 50.0 µg/ml
assay-endpoint: inhibition (%)

Worked cases, inhibition given:
molecule: CCC/C=C/C(=O)NCC(C)(C)O
inhibition / %: 50.1
--
molecule: CCC/C=C/C(=O)NCC(C)C
inhibition / %: 80.5
--
molecule: C=C(C)CNC(=O)CCCCC
inhibition / %: 79.7

A = CCCCC(=O)NCC(C)C
B = C/C=C/C=C/C(=O)NCC(C)(C)O
Ask: Lower value for measured inhibition? Options: A , B Choose, then provide that item's label.
Result: B
(B: 32.4%, A: 65.8%)

---

test-description: Inhibition of quorum sensing system in Pseudomonas aeruginosa PAO1-rhlA-gfp assessed as inhibition of rhlA expression at 50 ug/ml incubated for 8 hrs under shaking condition by microplate reader based analysis relative to control
condition-details: dose 50.0 µg/ml
assay-endpoint: inhibition (%)

molecule: C=C(C)CNC(=O)CCC
inhibition, %: 64.5
//
molecule: CCCCCC(=O)NCC(C)(C)O
inhibition, %: 54.9
//
molecule: C/C=C/C(=O)NCC(C)C
inhibition, %: 72.3
//
molecule: C=C(C)CNC(=O)/C=C/C=C/C
inhibition, %: 56.8
